The measured values listed here are drawn from patent US20260138978A1.

# target_desc: human mAChRM1 (Homo sapiens, UniProt P11229)
# Construct: host or cells: CHO-K1
# Sequence (P11229 1-460): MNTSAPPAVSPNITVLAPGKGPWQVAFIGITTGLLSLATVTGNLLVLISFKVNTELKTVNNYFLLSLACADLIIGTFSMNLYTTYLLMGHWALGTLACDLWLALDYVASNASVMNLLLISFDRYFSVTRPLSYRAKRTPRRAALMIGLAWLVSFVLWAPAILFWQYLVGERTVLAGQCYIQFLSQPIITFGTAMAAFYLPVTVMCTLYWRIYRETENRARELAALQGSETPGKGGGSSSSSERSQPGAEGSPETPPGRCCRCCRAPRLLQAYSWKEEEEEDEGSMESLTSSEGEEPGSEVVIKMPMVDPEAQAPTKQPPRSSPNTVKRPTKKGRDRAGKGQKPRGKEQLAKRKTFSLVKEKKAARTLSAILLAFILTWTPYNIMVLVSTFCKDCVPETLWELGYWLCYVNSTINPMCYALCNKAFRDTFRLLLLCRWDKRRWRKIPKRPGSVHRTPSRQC
# test_method_notes: mAChR M1 cell-based functional assay (calcium mobilization), agonist activity upon compound addition, Emax relative to acetylcholine maximum
# condition_notes: relative to the maximum for acetylcholine
readout_label: Emax (%)

>  <compound>
Cn1cc2c(-c3cc(F)c(CN4Cc5ncccc5C4=O)c(F)c3)ccc(C3(O)CCOC3)c2n1 (centres unmarked)

>  <endpoint_unit>
%

>  <Emax>
20

$$$$
>  <compound>
Cn1cc2cc(-c3cc(F)c(CN4Cc5ncccc5C4=O)c(F)c3)cc(C(C)(C)O)c2n1

>  <endpoint_unit>
%

>  <Emax>
21

$$$$
>  <compound>
Cn1cc2c(-c3cc(F)c(CN4Cc5ncccc5C4=O)c(F)c3)ccc(C3(O)CCOCC3)c2n1

>  <endpoint_unit>
%

>  <Emax>
22

$$$$
>  <compound>
Cn1cc2c(-c3cc(F)c(CN4Cc5ncccc5C4=O)c(F)c3)ccc(C3(O)CCCC3)c2n1

>  <endpoint_unit>
%

>  <Emax>
15

$$$$
>  <compound>
Cn1cc2c(-c3cc(F)c(CN4Cc5cccnc5C4=O)c(Cl)c3)ccc(C(C)(C)O)c2n1

>  <endpoint_unit>
%

>  <Emax>
20

$$$$
